In this section, each of the binders is paired with its reported pKi.
Biological target: T1, rat NK1 receptor (rat, UniProt P14600 1-407)
T1 construct: whole, on cells; membrane preparations of the transfected cells were used; also called rNK1; rNK-1
T1 sequence (P14600 whole entry): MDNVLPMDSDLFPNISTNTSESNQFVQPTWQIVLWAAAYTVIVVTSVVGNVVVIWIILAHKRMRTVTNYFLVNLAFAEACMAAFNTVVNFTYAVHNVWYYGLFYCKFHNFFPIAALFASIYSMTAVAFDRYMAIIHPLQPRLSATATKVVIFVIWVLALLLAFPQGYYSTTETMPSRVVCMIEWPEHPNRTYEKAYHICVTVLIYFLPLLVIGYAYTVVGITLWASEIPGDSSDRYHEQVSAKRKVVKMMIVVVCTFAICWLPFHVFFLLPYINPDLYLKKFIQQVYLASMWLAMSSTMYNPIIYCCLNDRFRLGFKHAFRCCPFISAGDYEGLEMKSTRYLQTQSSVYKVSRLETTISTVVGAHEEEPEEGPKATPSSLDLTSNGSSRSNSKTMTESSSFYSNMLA
Assay: competition vs [3H]Substance P, rNK1 CHO cell membranes
Square brackets hold non-standard residues; d marks the D form. Ends that are not written are not given here. * marks the point of attachment. Glc = O-glucosyl on Ser side chain (Ser(OGlu)/Ser(OGlc)); NH(3,5-(CF3)2-benzyl) = FC(F)(F)c1cc(CN*)cc(C(F)(F)F)c1; Nle = CCCC[C@H](N)C(=O)O
Scale: negative log10 of molar concentration, which is what pKi denotes.

binder	pKi
Y[dA]GFS(Glc)PLW-{NH(3,5-(CF3)2-benzyl)} (also called TY042) [TyrDAlaGlyPheSer(OGlu)ProLeuTrpNHBn(CF3)2]	8.82

Supply reported pKi belonging to this binder: Y[dA]GF[Nle]PS(Glc)W-{NH(3,5-(CF3)2-benzyl)} (also called TY041) [TyrDAlaGlyPheNleProSer(OGlu)TrpNHBn(CF3)2]
7.85
